# Measured On: T1, Unizyme-tagged human IL-13 (33-146) (human, UniProt P35225 33-146, ALEXA FLUOR 488 or ALEXA FLUOR 647 succinimidyl ester label in the staining and flow cytometry experiments)
# T1 construct: range 33-146; The SPR section says only 'Human IL-13'; also called huIL-13; IL-13 antigen; not shown: Unizyme tag
# Assay Notes: SPR (Biacore 3000), half-antibody from E. coli periplasmic extract captured by Fab Binder, human IL-13 as analyte, 25 C
Endpoint Label: kon

Binder: anti-IL-13 half-antibody WT (antibody, V domains shown, Half-antibody (one heavy and one light chain, knobs-into-holes Fc); Expressed in the E. coli periplasm; for SPR captured from periplasmic extract; also called anti-IL-13 WT; Half-Ab) VH: QVTLRESGPALVKPTQTLTLTCTVSGFSLSAYSVNWIRQPPGKALEWLAMIWGDGKIVYNSALKSRLTISKDTSKNQVVLTMTNMDPVDTATYYCAGDGYYPYAMDNWGQGSLVTVSS VL: DIVMTQSPDSLSVSLGERATINCRASKSVDSYGNSFMHWYQQKPGQPPKLLIYLASNLESGVPDRFSGSGSGTDFTLTISSLQAEDVAVYYCQQNNEDPRTFGGGTKVEIK
Endpoint Label: kon
Assay Value: 1.3e+06 M⁻¹ s⁻¹

Binder: anti-IL-13 half-antibody framework variant F27L (heavy chain) (antibody, name in Kabat numbering, V domains shown, Half-antibody) VH: QVTLRESGPALVKPTQTLTLTCTVSGLSLSAYSVNWIRQPPGKALEWLAMIWGDGKIVYNSALKSRLTISKDTSKNQVVLTMTNMDPVDTATYYCAGDGYYPYAMDNWGQGSLVTVSS VL: DIVMTQSPDSLSVSLGERATINCRASKSVDSYGNSFMHWYQQKPGQPPKLLIYLASNLESGVPDRFSGSGSGTDFTLTISSLQAEDVAVYYCQQNNEDPRTFGGGTKVEIK
Endpoint Label: kon
Assay Value: 1.3e+06 M⁻¹ s⁻¹

Binder: anti-IL-13 half-antibody framework variant E6Q (heavy chain) (antibody, name in Kabat numbering, V domains shown, Half-antibody) VH: QVTLRQSGPALVKPTQTLTLTCTVSGFSLSAYSVNWIRQPPGKALEWLAMIWGDGKIVYNSALKSRLTISKDTSKNQVVLTMTNMDPVDTATYYCAGDGYYPYAMDNWGQGSLVTVSS VL: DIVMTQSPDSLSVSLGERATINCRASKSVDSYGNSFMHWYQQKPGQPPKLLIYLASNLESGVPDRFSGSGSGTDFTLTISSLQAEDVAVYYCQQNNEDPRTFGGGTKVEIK
Endpoint Label: kon
Assay Value: 1.13e+06 M⁻¹ s⁻¹

Binder: anti-IL-13 half-antibody framework variant M4L (light chain) (antibody, name in Kabat numbering, V domains shown, Half-antibody) VH: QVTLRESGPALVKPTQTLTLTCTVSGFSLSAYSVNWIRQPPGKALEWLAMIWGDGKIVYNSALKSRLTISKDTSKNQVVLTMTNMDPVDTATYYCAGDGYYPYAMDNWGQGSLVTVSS VL: DIVLTQSPDSLSVSLGERATINCRASKSVDSYGNSFMHWYQQKPGQPPKLLIYLASNLESGVPDRFSGSGSGTDFTLTISSLQAEDVAVYYCQQNNEDPRTFGGGTKVEIK
Endpoint Label: kon
Assay Value: 1.11e+06 M⁻¹ s⁻¹
